The measured values listed here are drawn from paper PMC5869712.

Test: Pharmacokinetics in Sprague Dawley rats
Type: in vivo
Settings: both sexes, Sprague Dawley, rat, plasma, po 10 mg/kg
Attribute Measured: Tmax

>>> obs_value("C=CC(=O)N[C@@H]1CCCN(c2ncnc3[nH]ccc23)C1 [RB1]")
"15 min"

---

Assay: Acute toxicity in SD rats, oral
Conditions: Sprague Dawley, rat, in vivo, po
Attribute Measured: LD50

>>> obs_value("C=CC(=O)N[C@@H]1CCCN(c2ncnc3[nH]ccc23)C1 [RB1]")
"> 2000 mg/kg"

---

Assay: Pharmacokinetics in Sprague Dawley rats
Assay type: in vivo
Settings: both sexes, Sprague Dawley, rat, plasma, iv 5.0 mg/kg
Attribute Measured: half-life (h)

>>> obs_value("C=CC(=O)N[C@@H]1CCCN(c2ncnc3[nH]ccc23)C1 [RB1]")
14.6

---

Target: TYK2 (Homo sapiens)
Sequence (P29597 whole entry): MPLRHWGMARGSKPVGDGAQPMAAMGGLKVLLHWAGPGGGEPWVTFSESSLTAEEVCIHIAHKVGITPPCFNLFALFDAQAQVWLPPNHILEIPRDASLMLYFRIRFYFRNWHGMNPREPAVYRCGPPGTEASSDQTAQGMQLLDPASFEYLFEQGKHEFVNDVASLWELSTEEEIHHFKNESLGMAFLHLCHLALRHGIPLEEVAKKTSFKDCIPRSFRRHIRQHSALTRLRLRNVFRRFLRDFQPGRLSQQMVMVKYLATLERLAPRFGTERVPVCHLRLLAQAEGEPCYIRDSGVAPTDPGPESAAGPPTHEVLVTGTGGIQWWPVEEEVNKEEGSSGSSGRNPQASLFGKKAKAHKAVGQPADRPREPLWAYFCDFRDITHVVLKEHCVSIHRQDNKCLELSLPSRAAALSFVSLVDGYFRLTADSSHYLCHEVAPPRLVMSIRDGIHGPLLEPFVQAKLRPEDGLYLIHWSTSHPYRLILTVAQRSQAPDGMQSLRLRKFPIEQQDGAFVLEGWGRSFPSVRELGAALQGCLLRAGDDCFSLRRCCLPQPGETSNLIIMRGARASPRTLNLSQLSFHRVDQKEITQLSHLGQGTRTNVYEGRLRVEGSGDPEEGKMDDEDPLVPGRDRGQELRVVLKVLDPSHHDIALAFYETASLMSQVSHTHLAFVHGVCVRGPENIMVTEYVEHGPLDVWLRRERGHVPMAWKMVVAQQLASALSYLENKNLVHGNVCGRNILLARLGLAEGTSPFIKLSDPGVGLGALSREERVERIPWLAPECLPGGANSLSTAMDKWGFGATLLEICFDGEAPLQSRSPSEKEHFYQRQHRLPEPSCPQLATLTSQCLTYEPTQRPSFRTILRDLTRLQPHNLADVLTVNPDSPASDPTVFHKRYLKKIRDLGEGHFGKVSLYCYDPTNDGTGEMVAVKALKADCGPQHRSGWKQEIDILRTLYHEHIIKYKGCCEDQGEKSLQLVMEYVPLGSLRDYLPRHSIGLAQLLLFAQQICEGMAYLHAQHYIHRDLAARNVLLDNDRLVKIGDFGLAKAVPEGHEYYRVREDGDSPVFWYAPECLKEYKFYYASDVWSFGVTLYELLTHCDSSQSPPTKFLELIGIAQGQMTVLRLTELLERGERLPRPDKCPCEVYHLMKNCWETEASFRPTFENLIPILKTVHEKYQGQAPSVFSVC
Attribute Measured: IC50

>>> obs_value("C=CC(=O)N[C@@H]1CCCN(c2ncnc3[nH]ccc23)C1")
"> 5 µM"

---

System: GM-CSF-induced STAT5 phosphorylation (JAK2)
Assay: GM-CSF-induced pSTAT5 in total lymphocytes in hPBMCs, flow cytometry
Format: cell-based
Details: Homo sapiens, Lymphocyte, hPBMC total lymphocytes, trigger GM-CSF, readout pSTAT5
Attribute Measured: IC50

>>> obs_value("C=CC(=O)N[C@@H]1CCCN(c2ncnc3[nH]ccc23)C1")
"> 10 µM"

---

Experiment: Pharmacokinetics in Sprague Dawley rats
Assay type: in vivo
Details: both sexes, Sprague Dawley, rat, plasma, po 10 mg/kg
Attribute Measured: half-life (h)

>>> obs_value("C=CC(=O)N[C@@H]1CCCN(c2ncnc3[nH]ccc23)C1")
6.9

---

Target protein (sequence): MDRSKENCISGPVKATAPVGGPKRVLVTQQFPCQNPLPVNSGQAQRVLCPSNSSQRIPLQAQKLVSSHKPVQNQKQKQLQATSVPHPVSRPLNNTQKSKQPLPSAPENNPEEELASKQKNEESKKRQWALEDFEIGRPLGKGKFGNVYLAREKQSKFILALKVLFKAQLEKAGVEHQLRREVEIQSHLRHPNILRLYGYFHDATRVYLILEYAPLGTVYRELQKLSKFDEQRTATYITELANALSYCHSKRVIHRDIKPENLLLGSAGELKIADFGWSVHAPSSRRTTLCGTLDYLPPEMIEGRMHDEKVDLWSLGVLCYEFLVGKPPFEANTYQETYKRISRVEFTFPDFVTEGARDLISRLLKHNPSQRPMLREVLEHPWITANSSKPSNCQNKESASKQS
Attribute Measured: IC50

>>> obs_value("C=CC(=O)N[C@@H]1CCCN(c2ncnc3[nH]ccc23)C1")
"> 800 nM"

---

Experiment: Pharmacokinetics in Sprague Dawley rats
Format: in vivo
Settings: both sexes, Sprague Dawley, rat, po 10 mg/kg, plasma
Attribute Measured: Cmax (ng/mL)

>>> obs_value("C=CC(=O)N[C@@H]1CCCN(c2ncnc3[nH]ccc23)C1 [RB1]")
309

---

Target: UniProt Q96GD4
Sequence (Q96GD4 whole entry): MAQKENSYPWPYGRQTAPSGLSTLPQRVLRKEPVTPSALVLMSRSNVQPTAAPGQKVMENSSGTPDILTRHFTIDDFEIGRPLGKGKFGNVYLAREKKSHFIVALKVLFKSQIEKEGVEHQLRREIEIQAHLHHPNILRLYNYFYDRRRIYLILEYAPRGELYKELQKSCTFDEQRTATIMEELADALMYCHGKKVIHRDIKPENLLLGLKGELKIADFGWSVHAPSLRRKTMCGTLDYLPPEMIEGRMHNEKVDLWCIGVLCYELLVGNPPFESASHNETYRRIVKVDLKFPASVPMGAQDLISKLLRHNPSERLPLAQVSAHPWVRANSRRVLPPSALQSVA
pIC50: −log10 of the molar value.
Attribute Measured: pIC50

>>> obs_value("C=CC(=O)N[C@@H]1CCCN(c2ncnc3[nH]ccc23)C1")
"< 6.10"
